- target_entity: MAPK15 (human) (UniProt Q8TD08)
- Sequence (Q8TD08 whole entry, looked up): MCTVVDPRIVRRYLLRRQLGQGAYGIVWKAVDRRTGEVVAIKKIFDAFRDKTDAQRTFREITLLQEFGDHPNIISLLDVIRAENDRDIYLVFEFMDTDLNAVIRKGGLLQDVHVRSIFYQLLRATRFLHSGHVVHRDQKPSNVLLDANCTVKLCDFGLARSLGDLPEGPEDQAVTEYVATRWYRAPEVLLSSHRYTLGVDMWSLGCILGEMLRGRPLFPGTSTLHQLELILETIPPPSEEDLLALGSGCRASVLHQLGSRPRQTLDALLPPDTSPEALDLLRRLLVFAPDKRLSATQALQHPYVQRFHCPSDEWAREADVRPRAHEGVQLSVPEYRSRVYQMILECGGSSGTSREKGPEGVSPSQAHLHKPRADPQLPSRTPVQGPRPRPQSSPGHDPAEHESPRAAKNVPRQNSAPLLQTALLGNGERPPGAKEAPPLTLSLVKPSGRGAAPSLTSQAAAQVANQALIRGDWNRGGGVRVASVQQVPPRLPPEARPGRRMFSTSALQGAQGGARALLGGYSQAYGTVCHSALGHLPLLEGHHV
- assay_details: radiometric filter-binding kinase assay
- conditions: compound 0.1 µM

{"columns": ["molecule", "target_entity", "residual activity [%]"],
 "data": [
  ["CNC(=O)C1[C@H]2O[C@@](C)([C@@H]1N)n1c3ccccc3c3c4c(c5c6ccccc6n2c5c31)C(=O)NC4 (some centres undefined)", "MAPK15 (human) (UniProt Q8TD08)", 8],
  ["NC(=O)Nc1ccc2c(c1)/C(=C/c1cc(-c3cccnc3)c[nH]1)C(=O)N2", "MAPK15 (human) (UniProt Q8TD08)", 5],
  ["Cc1ccc(-c2ccc3c(ccc4sc5c(c43)NC[C@@H](C)NC5=O)n2)cn1", "MAPK15 (human) (UniProt Q8TD08)", 96],
  ["CNc1nc(-c2ccc3c(N)n[nH]c3c2)cc(N2C[C@@H](C(=O)NC3CCCCC3)CC[C@H]2C)n1", "MAPK15 (human) (UniProt Q8TD08)", 117],
  ["COc1ccc(-n2ncc3cnc(Nc4cc(OC)c(OC)c(OCCCN5CCN(C)CC5)c4)nc32)cc1", "MAPK15 (human) (UniProt Q8TD08)", 22],
  ["NC(=O)c1cc2c(-c3cccc(-c4ccccc4)c3)cnc(N)c2s1", "MAPK15 (human) (UniProt Q8TD08)", 99],
  ["c1ccc2c(-c3cnn4cc(-c5ccc(N6CCNCC6)cc5)cnc34)ccnc2c1", "MAPK15 (human) (UniProt Q8TD08)", 87],
  ["Cc1cccc(-c2nn(C(=S)Nc3ccccc3)cc2-c2ccnc3ccccc23)n1", "MAPK15 (human) (UniProt Q8TD08)", 108],
  ["CCc1cncnc1N1CCN(Cc2nc3cc(C(F)(F)F)ccc3[nH]2)CC1", "MAPK15 (human) (UniProt Q8TD08)", 85],
  ["COc1ccc2c(c1)c1c3c(c4c5ccccc5n(C)c4c1n2CC(O)CN(C)C)C(=O)NC3=O (centres undefined)", "MAPK15 (human) (UniProt Q8TD08)", 78],
  ["O=C(NCCCNc1nc(Nc2cccc(CN3CCOCC3)c2)ncc1C1CC1)C1CCC1", "MAPK15 (human) (UniProt Q8TD08)", 81],
  ["COc1cc(O)c2c(c1)[C@H]1OC1C[C@H](O)[C@H](O)C(=O)/C=C\\C[C@H](C)OC2=O (some centres undefined)", "MAPK15 (human) (UniProt Q8TD08)", 27],
  ["Cc1cc(NC(=O)c2cccc(NC(=O)/C=C/CN(C)C)c2)ccc1Nc1nccc(-c2cccnc2)n1", "MAPK15 (human) (UniProt Q8TD08)", 90],
  ["C=CC(=O)N1CCC[C@@H](n2nc(-c3ccc(Oc4ccccc4)cc3)c3c(N)ncnc32)C1", "MAPK15 (human) (UniProt Q8TD08)", 85],
  ["Cc1ccc(Sc2cnc(Nc3cccc(Br)n3)s2)cc1C(=O)N1CCN(C(=O)CN)CC1", "MAPK15 (human) (UniProt Q8TD08)", 1],
  ["O=C(O)c1ccc(-c2c[nH]c3ncc(-c4ccccc4)cc23)cc1C1CCCC1", "MAPK15 (human) (UniProt Q8TD08)", 23],
  ["NC(=O)c1cc(-c2ccnc(NC3CCCCC3)c2)nc(N2CCNCC2)c1", "MAPK15 (human) (UniProt Q8TD08)", 63],
  ["COc1ccc(N(C(=O)Nc2c(C)cccc2C)c2cc(Nc3ccc(N4CCN(C)CC4)cc3)ncn2)c(OC)c1", "MAPK15 (human) (UniProt Q8TD08)", 112],
  ["NC1(c2ccc(-c3nc4ccn5c(=O)[nH]nc5c4cc3-c3ccccc3)cc2)CCC1", "MAPK15 (human) (UniProt Q8TD08)", 106]
]}
